# assayed system: recombinant mTOR (FLAG-tagged, residues 1362-2549) (Homo sapiens)
# Sequence (P42345 1362-2549): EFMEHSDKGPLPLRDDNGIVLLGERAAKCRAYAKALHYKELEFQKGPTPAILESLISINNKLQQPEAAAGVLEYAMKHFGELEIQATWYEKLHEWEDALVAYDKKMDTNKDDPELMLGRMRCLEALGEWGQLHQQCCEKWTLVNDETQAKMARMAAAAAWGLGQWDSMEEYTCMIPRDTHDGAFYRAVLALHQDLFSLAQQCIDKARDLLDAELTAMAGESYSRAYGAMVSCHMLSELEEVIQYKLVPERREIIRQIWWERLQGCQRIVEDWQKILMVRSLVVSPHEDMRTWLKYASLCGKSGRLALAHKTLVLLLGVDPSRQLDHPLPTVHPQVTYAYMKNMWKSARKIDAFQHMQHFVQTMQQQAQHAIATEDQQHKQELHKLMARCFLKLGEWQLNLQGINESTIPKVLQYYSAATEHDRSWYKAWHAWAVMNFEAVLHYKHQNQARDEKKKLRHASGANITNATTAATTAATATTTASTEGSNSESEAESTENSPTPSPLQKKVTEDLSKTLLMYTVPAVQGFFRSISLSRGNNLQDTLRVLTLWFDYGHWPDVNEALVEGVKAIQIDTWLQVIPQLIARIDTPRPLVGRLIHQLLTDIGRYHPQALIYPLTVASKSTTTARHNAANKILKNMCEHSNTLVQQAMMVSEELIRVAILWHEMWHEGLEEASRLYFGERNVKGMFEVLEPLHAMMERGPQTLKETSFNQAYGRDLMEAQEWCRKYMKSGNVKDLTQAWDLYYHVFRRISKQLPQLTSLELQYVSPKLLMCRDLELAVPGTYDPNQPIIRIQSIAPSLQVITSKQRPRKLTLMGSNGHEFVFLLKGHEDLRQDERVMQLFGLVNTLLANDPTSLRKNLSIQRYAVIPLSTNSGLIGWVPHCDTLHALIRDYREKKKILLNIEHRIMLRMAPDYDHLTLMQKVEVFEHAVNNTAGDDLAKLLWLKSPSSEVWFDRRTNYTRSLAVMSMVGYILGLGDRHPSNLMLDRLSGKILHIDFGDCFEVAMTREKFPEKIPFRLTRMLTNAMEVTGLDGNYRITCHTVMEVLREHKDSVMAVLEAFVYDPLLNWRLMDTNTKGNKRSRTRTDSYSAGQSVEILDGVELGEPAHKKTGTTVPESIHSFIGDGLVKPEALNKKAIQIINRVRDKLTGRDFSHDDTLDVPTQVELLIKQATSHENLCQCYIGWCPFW
# procedure summary: In vitro mTOR kinase assay (Test (a), AlphaScreen)
# Assay type: biochemical
# experimental parameters: ATP 20 μM, read-out: Test (a): IC50 versus mTOR kinase
Examples of compounds with documented IC50 follow.

compound | IC50 / µM
Cc1cc(-c2nc(CS(C)(=O)=O)cc(N3CCOC[C@@H]3C)n2)ccc1NC(=O)Nc1ccccc1 | 1.5
CNC(=O)C1CCN(C(=O)Nc2ccc(-c3nc(CS(C)(=O)=O)cc(N4CCOCC4)n3)cc2)CC1 [Example 45y] | 1.2
COc1ccc(NC(=O)Nc2ccc(-c3nc(CS(C)(=O)=O)cc(N4CCOC[C@@H]4C)n3)cc2)cc1 | 0.062
CS(=O)(=O)Cc1cc(N2CCOCC2)nc(-c2ccc(NC(=O)NCc3ccco3)cc2)n1 | 3.8

Values compiled from patent US7750003B2.
